Test system: Aspergillus clavatus
Experiment: Antimicrobial activity against Aspergillus clavatus MTCC 1323 assessed as growth inhibition after 48 hr by agar streak dilution method
Format: functional
Conditions: MTCC 1323, 48 h
QUANTITY NAME: log10 of MIC (log10 of the value in µg/mL)
The base-10 logarithm of MIC, taken with MIC in µg/mL, is what appears here.

Consider the following illustrative entries.
COc1ccc(-c2cc(-c3ccc(Nc4cc(=O)oc5ccccc45)cc3)nc(N)n2)cc1OC ... 1.10
Cc1ccc(-c2cc(-c3ccc(Nc4cc(=O)oc5ccccc45)cc3)nc(N)c2C#N)cc1 ... 1.40
N#Cc1c(-c2ccc(Cl)cc2Cl)cc(-c2ccc(Nc3cc(=O)oc4ccccc34)cc2)nc1N ... 1.40
O=C(/C=C/c1ccc(Cl)cc1Cl)c1ccc(Nc2cc(=O)oc3ccccc23)cc1 ... 2.00
N#Cc1c(-c2ccc([N+](=O)[O-])cc2)cc(-c2ccc(Nc3cc(=O)oc4ccccc34)cc2)nc1N ... 1.40
CC(=O)N1N=C(c2ccc(Nc3cc(=O)oc4ccccc34)cc2)CC1c1ccc(F)cc1 (stereo not drawn) ... 1.70

[Q] Need log10 of MIC, item "Nc1nc(-c2ccc(Nc3cc(=O)oc4ccccc34)cc2)cc(-c2ccc(Cl)cc2Cl)n1"
[A] 1.70

[Q] Query (compound): "COc1ccc(-c2cc(-c3ccc(Nc4cc(=O)oc5ccccc45)cc3)nc(N)c2C#N)cc1" ; field requested: log10 of MIC
[A] 0.80

[Q] Which log10 of MIC value belongs to CC(=O)N1N=C(c2ccc(Nc3cc(=O)oc4ccccc34)cc2)CC1c1ccc(Cl)cc1Cl (stereo not drawn) ?
[A] 2.00

[Q] Fill in the blank: the reported log10 of MIC of "O=C(/C=C/c1ccccc1O)c1ccc(Nc2cc(=O)oc3ccccc23)cc1" is ____.
[A] 2.00

[Q] Would you kindly share the measured log10 of MIC for CC(=O)N1N=C(c2ccc(Nc3cc(=O)oc4ccccc34)cc2)CC1c1ccc([N+](=O)[O-])cc1 (stereo not drawn) ?
[A] 1.70

[Q] Which log10 of MIC is reported for this compound? "COc1ccc(-c2cc(-c3ccc(Nc4cc(=O)oc5ccccc45)cc3)nc(N)c2C#N)cc1OC"
[A] 0.80

[Q] Query (compound): "Nc1nc(-c2ccc(Nc3cc(=O)oc4ccccc34)cc2)cc(-c2ccccc2O)n1" ; field requested: log10 of MIC
[A] 0.80
